System: Escherichia coli
Assay: Antimicrobial activity against Escherichia coli ATCC […] after 18 to 24 hrs by alamar blue assay
Type: functional
Conditions: Escherichia coli; read-out: MIC
Entries and their MIC

1) Cc1c(CC(=O)NCCC(=O)O)c(=O)oc2c(C)c3occ(-c4ccc(Cl)cc4)c3cc12    > 256 µg/mL
2) CCc1cc(O)nc(N2NC(C)=CC2NC(=O)c2ccccc2F)n1 (stereo not drawn)    > 256 µg/mL

Inquiry: GET /values?readout=MIC&item= `O=C(Nc1nnc(-c2ccc(F)cc2)o1)c1cccc(Cl)c1`
Reply text: > 256 µg/mL

====

Entries and their log10(MIC) values follow.
Tested on: Staphylococcus aureus
Experiment: Antimicrobial activity against methicillin-resistant Staphylococcus aureus ATCC 33592 after 18 to 24 hrs by alamar blue assay
Type: functional
Conditions: Staphylococcus aureus, ATCC 33592; read-out: MIC
Form field - Quantity: MIC; Unit: µg/mL; Scale: log10

1. Cc1ccc(NS(=O)(=O)c2ccc3c(c2)NCC(C)C(=O)S3)c(C)c1 (stereo not given)    0.30
2. CC1=CC(NC(=O)C(C)Oc2ccccc2)N(c2nc(C)c(C)c(O)n2)N1 (stereo not given)    -0.60
3. O=C(CCN1C(=O)c2cccc3cccc(c23)C1=O)N1CCN(C/C=C/c2ccccc2)CC1    0.00
4. Cc1c(CC(=O)NCC(=O)O)c(=O)oc2c(C)c3occ(-c4ccc(Cl)cc4)c3cc12    0.10
5. O=C(Nc1ccc(Cl)c(Cl)c1)c1cc(Cl)ccc1NS(=O)(=O)c1ccc(Cl)cc1    -0.60

Inquiry: I'm curious: which log10(MIC) was measured for `O=C(Nc1ccc(S(=O)(=O)c2nc3ccccc3s2)c(Cl)c1)c1cc(Cl)cc(Cl)c1O` tested on Staphylococcus aureus?
Reply text: 0.60

Inquiry: Okay, and `O=C(Nc1nnc(-c2ccc(F)cc2)o1)c1cccc(Cl)c1` ?
Reply text: -0.30

Inquiry: Follow-up item: `O=C(c1ccccc1)c1cc(NC(=O)c2cc(Br)cc(Br)c2O)ccc1Cl`
Reply text: 0.00

Inquiry: Then what about the compound `O=C1c2cc([N+](=O)[O-])cc3cc([N+](=O)[O-])cc(c23)C(=O)N1Nc1ccc(Cl)cc1` ?
Reply text: 0.40

Inquiry: Request: `Cc1c(CC(=O)N2CCC[C@H]2C(=O)O)c(=O)oc2c(C)c3occ(-c4ccc(Cl)cc4)c3cc12`
Reply text: -0.52

Inquiry: Follow-up item: `O=C(Nc1cc(Cl)c(Cl)c(Cl)c1)c1cc(Br)cc(Br)c1O`
Reply text: -1.22

Inquiry: And what about the compound `O=C(Nc1nnc(-c2ccc(Cl)cc2)o1)c1cccc(Br)c1` ?
Reply text: -0.30
